biological target: Adrenergic receptor alpha-1 (Rattus norvegicus, UniProt P15823+P23944+P43140); experiment: Antagonistic activity against alpha-1 adrenergic receptor in isolated rat anococcygeus muscle; assay type: functional, tissue-based
Where pA2 equals or exceeds 6, the correct label is Criterion met; where it does not, the label is Criterion not met.

Incoming: Exam item: decide whether the reported pA2 for CCCS(=O)(=O)N(C)[C@H]1CCN2CCc3ccccc3[C@H]2C1 is at least 6.
Outgoing: Criterion not met

Incoming: Can CCN([C@@H]1CCN2CCc3ccccc3[C@@H]2C1)S(=O)(=O)CC(C)C be said to have pA2 at or above 6?
Outgoing: Criterion met

Incoming: // inclusive: pA2 at least 6? input: Cc1ccc(S(=O)(=O)N(C)[C@@H]2CCN3CCc4ccccc4[C@@H]3C2)cc1
Outgoing: Criterion met

Incoming: Given the entry CN([C@H]1CCN2CCc3ccccc3[C@H]2C1)S(C)(=O)=O , answer whether its pA2 meets or surpasses 6.
Outgoing: Criterion not met

---

Molecular target: Adrenergic receptor alpha-2 (Rattus norvegicus, UniProt P22086+P19328+P22909)
Sequence (P22086 whole entry): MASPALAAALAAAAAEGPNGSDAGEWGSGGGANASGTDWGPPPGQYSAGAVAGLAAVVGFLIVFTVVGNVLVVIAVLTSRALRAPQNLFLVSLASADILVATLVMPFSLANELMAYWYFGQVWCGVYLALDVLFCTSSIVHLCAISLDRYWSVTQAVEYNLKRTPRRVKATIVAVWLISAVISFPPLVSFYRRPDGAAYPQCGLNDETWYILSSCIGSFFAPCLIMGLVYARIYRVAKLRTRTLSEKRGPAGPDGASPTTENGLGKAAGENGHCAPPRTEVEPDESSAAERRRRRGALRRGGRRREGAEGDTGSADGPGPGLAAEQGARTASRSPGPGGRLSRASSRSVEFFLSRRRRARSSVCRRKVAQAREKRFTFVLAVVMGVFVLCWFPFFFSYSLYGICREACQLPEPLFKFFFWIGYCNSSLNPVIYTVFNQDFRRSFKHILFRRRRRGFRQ
Sequence (P19328 whole entry): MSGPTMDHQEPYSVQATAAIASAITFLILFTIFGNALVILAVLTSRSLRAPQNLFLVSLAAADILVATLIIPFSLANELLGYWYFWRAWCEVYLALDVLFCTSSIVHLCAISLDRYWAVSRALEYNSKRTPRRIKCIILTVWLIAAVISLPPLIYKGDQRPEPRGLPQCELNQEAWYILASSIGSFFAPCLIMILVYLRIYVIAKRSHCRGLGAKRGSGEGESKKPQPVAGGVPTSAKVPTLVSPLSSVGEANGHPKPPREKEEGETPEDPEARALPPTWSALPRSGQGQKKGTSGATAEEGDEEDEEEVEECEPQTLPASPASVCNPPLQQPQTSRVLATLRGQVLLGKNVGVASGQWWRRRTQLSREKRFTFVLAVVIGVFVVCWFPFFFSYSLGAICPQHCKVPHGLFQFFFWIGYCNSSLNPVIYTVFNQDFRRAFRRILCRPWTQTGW
Sequence (P22909 whole entry): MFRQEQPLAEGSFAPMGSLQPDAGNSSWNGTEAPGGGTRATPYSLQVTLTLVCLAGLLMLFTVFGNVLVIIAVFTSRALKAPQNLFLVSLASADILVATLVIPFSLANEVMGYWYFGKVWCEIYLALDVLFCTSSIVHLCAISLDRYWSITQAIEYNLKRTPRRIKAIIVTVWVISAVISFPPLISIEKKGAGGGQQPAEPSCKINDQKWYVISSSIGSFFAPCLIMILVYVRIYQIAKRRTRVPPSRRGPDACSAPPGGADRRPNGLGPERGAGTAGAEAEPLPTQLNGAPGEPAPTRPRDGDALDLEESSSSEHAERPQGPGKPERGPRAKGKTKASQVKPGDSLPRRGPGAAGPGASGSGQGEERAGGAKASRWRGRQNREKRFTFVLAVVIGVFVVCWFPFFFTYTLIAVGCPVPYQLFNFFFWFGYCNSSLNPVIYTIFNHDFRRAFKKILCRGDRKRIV
Assay: Antagonistic activity against alpha-2 adrenergic receptor in rat vas deferens
Type: functional, tissue-based
test-readout: pA2
The reply should be a number, written without any unit.

Lab book: pA2 of CCCS(=O)(=O)N(C)[C@H]1CCN2CCc3ccccc3[C@H]2C1 noted as 7.1

Noted for Cc1ccc(S(=O)(=O)N(C)[C@@H]2CCN3CCc4ccccc4[C@@H]3C2)cc1 : its pA2 reads 8.1

Documented pA2 of CCCCS(=O)(=O)N(C)[C@@H]1CCN2CCc3ccccc3[C@@H]2C1 : 7.87

Entry CCCN([C@@H]1CCN2CCc3ccccc3[C@@H]2C1)S(C)(=O)=O — recorded pA2 = 6.77

pA2 reported for this molecule CN([C@@H]1CCN2CCc3ccccc3[C@@H]2C1)S(=O)(=O)C(F)(F)F : 7.15

Lab book: pA2 of CN(C)CCS(=O)(=O)N(C)[C@@H]1CCN2CCc3ccccc3[C@@H]2C1 noted as 7.26

Data origin: ChEMBL document CHEMBL1124159
